Hi there, I'd appreciate the recorded inhibition at 1000 µM for every entry that follows.
Target: UniProt P09871
Assay: Inhibitory effect on ester-hydrolyzing activity of human Cl esterase (ATEe substrate)
Type: biochemical
Details: read-out: percent inhibition at 10^-3 M (Cl esterase)
Structures can show the parent of a compound that is named as a salt.

Past entries and their recorded results:
Consider the compound CCOC(=O)c1ccc(OC(=O)C(CC)Cc2ccc(N)cc2)cc1 (stereo not shown) and give its measured inhibition at 1000 µM. < 10%

Repeat for the following compound: CCCCOc1ccc(OC(=O)CCc2ccc(NC(=N)N)cc2)cc1 < 10%

Repeat for the following compound: CCC(Cc1cccc(N)c1)C(=O)Oc1ccc(OC)cc1 (stereo not shown) [Compound No. 4, hydrochloride] 14.8%

Repeat for the following compound: Cl.Nc1ccc(CCC(=O)Oc2ccccc2)cc1 [Compound No. 3, hydrochloride] < 10%

Repeat for the following compound: CCCCOc1ccc(OC(=O)CCc2ccc(N)cc2)cc1 < 10%

Repeat for the following compound: CCC(Cc1cccc(N)c1)C(=O)Oc1cccc2ccccc12 (stereo not shown) 11.7%

Repeat for the following compound: Cc1ccc(OC(=O)CCc2ccc(N)cc2)cc1 [Compound No. 1, hydrochloride] < 10%

Repeat for the following compound: COc1ccc(OC(=O)CCc2ccc(N)cc2)cc1 < 10%

Repeat for the following compound: CCOC(=O)c1ccc(OC(=O)CCc2ccc(NC(=N)N)cc2)cc1.Cl [Compound No. 47, hydrochloride] < 10%

Okay, next one:
Consider the compound CC(Cc1cccc(N)c1)C(=O)Oc1ccc(Cl)cc1 (stereo not shown) and give its measured inhibition at 1000 µM. < 10%

====

Hi there, I'd appreciate the recorded inhibition at 5 µg/mL for every entry that follows.
System: collagen induced platelet aggregation of rabbit PRP
Test: Inhibition of collagen induced platelet aggregation of rabbit PRP
Format: cell-based
Details: Oryctolagus cuniculus, 5.0 μg/ml

Past entries and their recorded results:
Consider the compound CCCCOc1ccc(OC(=O)CCc2ccc(N)cc2)cc1 [compound 33] and give its measured inhibition at 5 µg/mL. 100%

Repeat for the following compound: CC(Cc1cccc(NC(=N)N)c1)C(=O)Oc1cccc2ccccc12 (centres unmarked) [compound 50] 100%

Repeat for the following compound: CC(=O)Oc1ccccc1C(=O)O [aspirin, reference compound] 78%

Repeat for the following compound: COc1ccc(OC(=O)CCc2ccc(N)cc2)cc1 [compound 32] 100%

Okay, next one:
Consider the compound CCC(Cc1cccc(N)c1)C(=O)Oc1cccc2ccccc12 (centres unmarked) [Compound No. 7] and give its measured inhibition at 5 µg/mL. 84%

====

System: collagen induced platelet aggregation of rabbit PRP
Experiment: Inhibition of collagen induced platelet aggregation of rabbit PRP
Assay type: cell-based
Details: Oryctolagus cuniculus, 2.5 μg/ml
ATTRIBUTE_MEASURED: inhibition at 2.5 µg/mL (%)
Answers are plain numbers, in %.

Past entries and their recorded results:
Give collagen induced platelet aggregation of rabbit PRP inhibition at 2.5 µg/mL for CC(Cc1cccc(NC(=N)N)c1)C(=O)Oc1cccc2ccccc12 (stereo not shown) 100

Repeat for the following compound: CCC(Cc1cccc(N)c1)C(=O)Oc1cccc2ccccc12 (stereo not shown) 37

Repeat for the following compound: COc1ccc(OC(=O)CCc2ccc(N)cc2)cc1 41

Further cases:
Give collagen induced platelet aggregation of rabbit PRP inhibition at 2.5 µg/mL for CCCCOc1ccc(OC(=O)CCc2ccc(N)cc2)cc1 100

====

Biological target: Human Plasmin (Homo sapiens)
Sequence (P00747 581-810 limits assumed): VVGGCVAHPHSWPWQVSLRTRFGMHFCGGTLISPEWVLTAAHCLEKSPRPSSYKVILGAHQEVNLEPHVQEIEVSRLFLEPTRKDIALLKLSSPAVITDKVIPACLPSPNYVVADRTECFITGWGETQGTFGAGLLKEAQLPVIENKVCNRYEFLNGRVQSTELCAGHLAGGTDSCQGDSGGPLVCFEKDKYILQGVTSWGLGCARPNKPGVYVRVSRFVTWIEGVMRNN
Sequence (P00747 97-580 partner limits assumed): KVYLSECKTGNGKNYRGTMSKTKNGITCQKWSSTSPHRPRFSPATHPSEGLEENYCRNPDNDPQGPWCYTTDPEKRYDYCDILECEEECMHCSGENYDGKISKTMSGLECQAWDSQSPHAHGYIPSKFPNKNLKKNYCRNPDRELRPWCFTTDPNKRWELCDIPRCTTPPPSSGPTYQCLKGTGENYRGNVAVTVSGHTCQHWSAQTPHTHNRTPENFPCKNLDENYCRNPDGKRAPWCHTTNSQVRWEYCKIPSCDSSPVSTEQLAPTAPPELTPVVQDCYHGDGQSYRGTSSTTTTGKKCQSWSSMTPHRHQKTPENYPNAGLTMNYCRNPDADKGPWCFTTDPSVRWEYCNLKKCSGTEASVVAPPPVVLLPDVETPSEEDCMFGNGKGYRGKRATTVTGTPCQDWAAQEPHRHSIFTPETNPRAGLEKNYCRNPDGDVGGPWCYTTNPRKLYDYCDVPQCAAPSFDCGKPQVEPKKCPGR
Experiment: Inhibitory effect on ester-hydrolyzing activity of human plasmin (TAMe substrate)
Type: biochemical
Conditions: read-out: percent inhibition at 10^-3 M (plasmin)
Where a name gives a salt, the structure may show the parent alone.
ATTRIBUTE_MEASURED: inhibition at 1000 µM

Consider the compound CCCCOc1ccc(OC(=O)CCc2ccc(NC(=N)N)cc2)cc1 and give its measured inhibition at 1000 µM. 20%

# return inhibition at 1000 µM for each item in the list
1. CC(Cc1ccc(NC(=N)N)cc1)C(=O)Oc1ccc(Cl)cc1 (centres unmarked)
2. CCC(Cc1cccc(NC(=N)N)c1)C(=O)Oc1ccccc1 (centres unmarked)
3. Cc1ccc(OC(=O)CCc2ccc(N)cc2)cc1 [Compound No. 1, hydrochloride]
4. CCC(Cc1cccc(N)c1)C(=O)Oc1cccc2ccccc12 (centres unmarked)
5. CCC(Cc1cccc(N)c1)C(=O)Oc1ccc(OC)cc1 (centres unmarked) [Compound No. 4, hydrochloride]

1: 18.8%; 2: < 10%; 3: < 10%; 4: < 10%; 5: < 10%

# return inhibition at 1000 µM for each item in the list
1. CC(Cc1cccc(NC(=N)N)c1)C(=O)Oc1cccc2ccccc12 (centres unmarked)
2. CC(Cc1cccc(NC(=N)N)c1)C(=O)Oc1ccccc1.O=C(O)O (centres unmarked)

1. 42%
2. < 10%

====

Target: Trypsin (Bos taurus)
Sequence (P00760 24-246): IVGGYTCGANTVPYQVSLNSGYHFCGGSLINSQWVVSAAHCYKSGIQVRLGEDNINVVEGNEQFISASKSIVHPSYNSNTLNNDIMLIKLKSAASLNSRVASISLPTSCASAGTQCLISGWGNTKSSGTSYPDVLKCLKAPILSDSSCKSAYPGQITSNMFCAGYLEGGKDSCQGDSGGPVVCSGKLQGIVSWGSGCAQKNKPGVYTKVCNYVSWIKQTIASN
Experiment: Inhibitory effect on ester-hydrolyzing activity of trypsin (TAMe substrate)
Type: biochemical
Settings: read-out: percent inhibition at 10^-3 M (trypsin)
Structures can show the parent of a compound that is named as a salt.
Hi there, I'd appreciate the recorded inhibition at 1000 µM for every entry that follows.
Answers are plain numbers, in %.

Consider the compound COc1ccc(OC(=O)CCc2ccc(N)cc2)cc1 [compound 32] and give its measured inhibition at 1000 µM. 38.8

Repeat for the following compound: Cc1ccc(OC(=O)C(C)Cc2ccc(NC(=N)N)cc2)cc1 (centres unmarked) [Compound No. 45, hydrochloride] 21.4

Repeat for the following compound: CC(Cc1cccc(NC(=N)N)c1)C(=O)Oc1ccccc1.O=C(O)O (centres unmarked) [Compound No. 46] 12.2

Repeat for the following compound: CCC(Cc1cccc(NC(=N)N)c1)C(=O)Oc1ccccc1 (centres unmarked) [compound 65] 35

Further cases:
Consider the compound CCC(Cc1ccc(NC(=N)N)cc1)C(=O)Oc1ccccc1 (centres unmarked) [Compound No. 73] and give its measured inhibition at 1000 µM. 43.9

====

Biological target: Human Plasma Kallikrein (Homo sapiens)
Sequence (P03952 391-638 limits assumed): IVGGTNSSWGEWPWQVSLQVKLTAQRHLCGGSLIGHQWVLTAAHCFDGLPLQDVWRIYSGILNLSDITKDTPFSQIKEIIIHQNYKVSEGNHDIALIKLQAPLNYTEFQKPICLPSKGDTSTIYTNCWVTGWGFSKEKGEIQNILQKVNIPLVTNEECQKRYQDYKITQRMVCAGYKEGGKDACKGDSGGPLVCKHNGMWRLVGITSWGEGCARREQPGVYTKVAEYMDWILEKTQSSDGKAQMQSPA
Sequence (P03952 20-390 partner limits assumed): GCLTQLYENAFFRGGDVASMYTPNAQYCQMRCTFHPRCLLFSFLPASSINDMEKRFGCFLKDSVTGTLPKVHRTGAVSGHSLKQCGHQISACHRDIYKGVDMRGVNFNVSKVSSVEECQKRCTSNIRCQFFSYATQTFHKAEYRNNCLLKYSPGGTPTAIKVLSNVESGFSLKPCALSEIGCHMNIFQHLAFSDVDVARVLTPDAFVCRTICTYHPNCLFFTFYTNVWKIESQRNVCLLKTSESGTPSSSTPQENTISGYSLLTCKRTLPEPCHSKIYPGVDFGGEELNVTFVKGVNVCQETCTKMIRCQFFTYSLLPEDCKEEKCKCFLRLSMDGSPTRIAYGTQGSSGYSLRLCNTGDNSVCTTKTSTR
Experiment: Inhibitory effect on ester-hydrolyzing activity of human plasma kallikrein (TAMe substrate)
Type: biochemical
Details: read-out: percent inhibition at 10^-3 M (kallikrein)
ATTRIBUTE_MEASURED: inhibition at 1000 µM (%)
Answers are plain numbers, in %.

Consider the molecule CCCCOc1ccc(OC(=O)CCc2ccc(NC(=N)N)cc2)cc1 and give its measured inhibition at 1000 µM. 1.5

Further cases:
Consider the molecule CCC(Cc1ccc(NC(=N)N)cc1)C(=O)Oc1ccccc1 (centres unmarked) and give its measured inhibition at 1000 µM. 31.5

====

Hi there, I'd appreciate the recorded inhibition at 1000 µM for every entry that follows.
Target: Human Plasma Kallikrein (Homo sapiens)
Experiment: Inhibitory effect on ester-hydrolyzing activity of human plasma kallikrein (TAMe substrate)
Type: biochemical
Conditions: read-out: percent inhibition at 10^-3 M (kallikrein)
Experimental: (A) Determination of Enzyme-inhibitory Activity: The enzyme-inhibitory activities in vitro of the compounds of this invention were measured by the following procedure according to the method of M. Muramatsu et al. [[…]. Makino, Y. Hayashi and S. Fujii: J.
Counter-ions that a name gives are not always drawn.

Past entries and their recorded results:
Consider the compound CC(Cc1ccc(NC(=N)N)cc1)C(=O)Oc1ccc(Cl)cc1 (centres unmarked) and give its measured inhibition at 1000 µM. 38.4%

Repeat for the following compound: Cc1ccc(OC(=O)CCc2ccc(N)cc2)cc1 [Compound No. 1, hydrochloride] < 10%

Repeat for the following compound: CCCC(Cc1cccc(NC(=N)N)c1)C(=O)Oc1ccccc1 (centres unmarked) 17.6%

Repeat for the following compound: CCC(Cc1cccc(NC(=N)N)c1)C(=O)Oc1ccccc1 (centres unmarked) 15.6%

Further cases:
Consider the compound CCOC(=O)c1ccc(OC(=O)CCc2ccc(NC(=N)N)cc2)cc1.Cl [Compound No. 47, hydrochloride] and give its measured inhibition at 1000 µM. 36%

====

Target: Human Plasma Kallikrein (Homo sapiens)
Assay: Inhibitory effect on ester-hydrolyzing activity of human plasma kallikrein (TAMe substrate)
Type: biochemical
Details: read-out: percent inhibition at 10^-3 M (kallikrein)
ATTRIBUTE_MEASURED: inhibition at 1000 µM (%)
Numbers only, in %.

Consider the compound CCOC(=O)c1ccc(OC(=O)C(CC)Cc2ccc(N)cc2)cc1 (centres unmarked) [compound 36] and give its measured inhibition at 1000 µM. 15.9

Okay, next one:
Consider the compound CC(Cc1cccc(NC(=N)N)c1)C(=O)Oc1ccccc1.O=C(O)O (centres unmarked) [Compound No. 46] and give its measured inhibition at 1000 µM. 12.9

====

Target: Human Cl Esterase (Homo sapiens, UniProt P09871)
Sequence (P09871 438-688 limits assumed): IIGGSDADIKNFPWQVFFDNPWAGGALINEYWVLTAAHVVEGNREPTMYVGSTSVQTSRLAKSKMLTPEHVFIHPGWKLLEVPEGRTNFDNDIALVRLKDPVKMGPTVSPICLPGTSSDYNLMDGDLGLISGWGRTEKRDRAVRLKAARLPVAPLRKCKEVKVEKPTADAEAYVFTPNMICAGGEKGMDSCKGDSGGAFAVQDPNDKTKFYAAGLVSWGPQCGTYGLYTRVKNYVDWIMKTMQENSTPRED
Sequence (P09871 16-437 partner limits assumed): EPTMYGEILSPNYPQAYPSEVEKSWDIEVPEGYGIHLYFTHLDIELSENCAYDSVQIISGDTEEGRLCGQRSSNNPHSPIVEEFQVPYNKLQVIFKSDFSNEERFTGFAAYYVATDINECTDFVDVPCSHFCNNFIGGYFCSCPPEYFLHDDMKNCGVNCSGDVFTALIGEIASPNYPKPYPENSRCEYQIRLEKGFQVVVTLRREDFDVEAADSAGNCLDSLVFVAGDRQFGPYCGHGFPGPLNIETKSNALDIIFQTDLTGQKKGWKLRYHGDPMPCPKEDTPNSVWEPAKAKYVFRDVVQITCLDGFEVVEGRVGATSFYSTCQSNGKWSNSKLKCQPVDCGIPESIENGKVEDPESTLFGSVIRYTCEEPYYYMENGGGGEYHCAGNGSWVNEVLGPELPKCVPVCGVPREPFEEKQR
Assay: Inhibitory effect on ester-hydrolyzing activity of human Cl esterase (ATEe substrate)
Type: biochemical
Conditions: in vitro; acetyltyrosine ethyl ester hydrolysis; read-out: ID50 (Cl esterase)
Counter-ions that a name gives are not always drawn.
Hi there, I'd appreciate the recorded IC50 for every entry that follows.
Answer format: number, then unit.

Consider the compound Cc1ccc(OC(=O)C(C)Cc2ccc(NC(=N)N)cc2)cc1 (stereo not shown) [Compound No. 45, hydrochloride] and give its measured IC50. 780 µM

# return IC50 for each item in the list
1. CC(Cc1cccc(NC(=N)N)c1)C(=O)Oc1cccc2ccccc12 (stereo not shown)
2. CC(Cc1cccc(NC(=N)N)c1)C(=O)Oc1ccccc1.O=C(O)O (stereo not shown)
3. CCC(Cc1ccc(NC(=N)N)cc1)C(=O)Oc1ccccc1 (stereo not shown)

1. 140 µM
2. 310 µM
3. 310 µM
